- target desc: PcpB (Sphingobium chlorophenolicum, UniProt P42535)
- Construct: endogenous in cells; host or cells: Flavobacterium sp; Strain ATCC 39723, PCP-induced; enzyme purified in house from the native bacterium
- Sequence (P42535 2-538): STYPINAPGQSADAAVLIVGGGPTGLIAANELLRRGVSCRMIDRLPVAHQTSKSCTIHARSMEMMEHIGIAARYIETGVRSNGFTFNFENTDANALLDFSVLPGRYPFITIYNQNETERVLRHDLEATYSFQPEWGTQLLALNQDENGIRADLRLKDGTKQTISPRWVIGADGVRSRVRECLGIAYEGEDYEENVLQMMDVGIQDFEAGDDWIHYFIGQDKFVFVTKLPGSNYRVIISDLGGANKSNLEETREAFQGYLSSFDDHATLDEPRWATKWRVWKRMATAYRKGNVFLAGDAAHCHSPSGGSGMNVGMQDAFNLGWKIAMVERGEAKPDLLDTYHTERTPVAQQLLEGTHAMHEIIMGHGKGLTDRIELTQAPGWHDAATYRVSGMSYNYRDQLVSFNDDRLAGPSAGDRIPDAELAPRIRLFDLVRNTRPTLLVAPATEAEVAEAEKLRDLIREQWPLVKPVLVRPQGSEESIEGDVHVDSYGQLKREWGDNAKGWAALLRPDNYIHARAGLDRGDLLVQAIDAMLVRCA
- method summary: Substrate disappearance in the presence of PcpB (substrate range)
- Format: biochemical, Flavobacterium sp. Strain ATCC 39723
- measurement parameters: HPLC or GC/MS analysis
quantity name: End Products of PcpB reaction

Use the examples below as a reference point.
Oc1c(Cl)ccc(Cl)c1Cl | 2,3,6-trichloro-p-hydroquinone
Oc1c(Cl)c(Cl)cc(Cl)c1Cl | TeCH
Oc1c(Cl)cccc1Cl | 2,6-dichloro-p-hydroquinone
Oc1cc(Cl)c(Cl)c(Cl)c1 | None
Oc1c(I)cc(I)cc1I | 2,6-diiodo-p-hydroquinone

# input Value lookup for End Products of PcpB reaction; key = Oc1cc(Cl)cc(Cl)c1
# output None

# input Find the recorded End Products of PcpB reaction belonging to Oc1c(Cl)cc(Cl)cc1Cl and report it.
# output 2,6-dichloro-p-hydroquinone
